- study-target: T1, human EphA8 (Homo sapiens, UniProt P29322)
- T1 construct: a protein of the extracellular region of each human Eph receptor fused with the SEAP protein and the His tag; made in house; host or cells: Expi293F cells (culture supernatant)
- T1 sequence (P29322 28-542 limits assumed): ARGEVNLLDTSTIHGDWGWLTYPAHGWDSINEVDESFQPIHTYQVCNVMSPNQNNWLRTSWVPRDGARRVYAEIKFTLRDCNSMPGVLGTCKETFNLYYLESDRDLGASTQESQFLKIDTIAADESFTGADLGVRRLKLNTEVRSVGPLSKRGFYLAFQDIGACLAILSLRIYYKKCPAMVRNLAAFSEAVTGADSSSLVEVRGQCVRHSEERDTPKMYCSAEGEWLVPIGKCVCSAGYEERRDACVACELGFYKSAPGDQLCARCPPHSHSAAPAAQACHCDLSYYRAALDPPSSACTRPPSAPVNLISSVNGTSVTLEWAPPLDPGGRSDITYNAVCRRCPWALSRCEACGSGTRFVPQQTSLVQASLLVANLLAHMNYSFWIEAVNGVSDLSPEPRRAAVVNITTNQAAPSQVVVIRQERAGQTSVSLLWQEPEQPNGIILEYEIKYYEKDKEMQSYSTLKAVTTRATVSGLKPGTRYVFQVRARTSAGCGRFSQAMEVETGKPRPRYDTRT
- assay-explanation: Selectivity ELISA of humanized antibodies for human Eph receptor
- Type: binding
- experimental-conditions: coated protein 1 nM
Exercise: for every item that follows, state its recorded hEphA8-SEAP-: absorbance at 450 nm, percentage with respect to hEphA4-SEAP-His as 100%.
Numbers only, in %.

| molecule | recorded-number |
| --- | --- |
| 133 (antibody, V domains shown, synthetic humanized antibody heavy chain variable region sequence; synthetic humanized antibody light chain variable region sequence) VH: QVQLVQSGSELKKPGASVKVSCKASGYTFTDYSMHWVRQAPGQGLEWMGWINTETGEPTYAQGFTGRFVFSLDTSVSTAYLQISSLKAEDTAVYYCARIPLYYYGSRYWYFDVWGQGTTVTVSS VL: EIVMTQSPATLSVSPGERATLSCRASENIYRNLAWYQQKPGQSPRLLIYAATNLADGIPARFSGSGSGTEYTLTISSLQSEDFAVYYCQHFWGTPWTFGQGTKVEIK | 4.7 |
| 71 (antibody, V domains shown, synthetic humanized antibody heavy chain variable region sequence; synthetic humanized antibody light chain variable region sequence) VH: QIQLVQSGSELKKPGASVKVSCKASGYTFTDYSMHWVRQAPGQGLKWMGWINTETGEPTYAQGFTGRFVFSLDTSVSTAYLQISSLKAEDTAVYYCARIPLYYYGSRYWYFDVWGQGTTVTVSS VL: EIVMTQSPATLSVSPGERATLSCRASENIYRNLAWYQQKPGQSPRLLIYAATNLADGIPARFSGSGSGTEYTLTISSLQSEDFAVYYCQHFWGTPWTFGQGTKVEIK | 5.3 |
| 94 (antibody, V domains shown, constant regions without entry; synthetic humanized antibody light chain variable region sequence; synthetic humanized antibody heavy chain variable region sequence) VL: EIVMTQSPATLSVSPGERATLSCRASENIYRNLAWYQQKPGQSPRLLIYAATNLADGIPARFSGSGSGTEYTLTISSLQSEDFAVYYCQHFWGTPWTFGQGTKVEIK VH: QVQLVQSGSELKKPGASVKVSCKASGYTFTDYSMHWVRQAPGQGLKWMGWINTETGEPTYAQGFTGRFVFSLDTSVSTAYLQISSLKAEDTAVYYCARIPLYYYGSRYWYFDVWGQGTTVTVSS | 7.0 |

**Query** Provide hEphA8-SEAP-: absorbance at 450 nm, percentage with respect to hEphA4-SEAP-His as 100% value for the following molecule: 152 (antibody, V domains shown, synthetic humanized antibody heavy chain variable region sequence; synthetic humanized antibody light chain variable region sequence) VH: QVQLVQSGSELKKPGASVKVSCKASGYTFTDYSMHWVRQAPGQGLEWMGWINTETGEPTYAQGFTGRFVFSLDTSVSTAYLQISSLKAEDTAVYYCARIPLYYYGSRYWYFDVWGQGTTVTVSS VL: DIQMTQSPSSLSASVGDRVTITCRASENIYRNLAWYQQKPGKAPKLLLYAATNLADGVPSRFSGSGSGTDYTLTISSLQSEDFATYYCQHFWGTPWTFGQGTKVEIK
**Result** 6.0
